Target protein (sequence): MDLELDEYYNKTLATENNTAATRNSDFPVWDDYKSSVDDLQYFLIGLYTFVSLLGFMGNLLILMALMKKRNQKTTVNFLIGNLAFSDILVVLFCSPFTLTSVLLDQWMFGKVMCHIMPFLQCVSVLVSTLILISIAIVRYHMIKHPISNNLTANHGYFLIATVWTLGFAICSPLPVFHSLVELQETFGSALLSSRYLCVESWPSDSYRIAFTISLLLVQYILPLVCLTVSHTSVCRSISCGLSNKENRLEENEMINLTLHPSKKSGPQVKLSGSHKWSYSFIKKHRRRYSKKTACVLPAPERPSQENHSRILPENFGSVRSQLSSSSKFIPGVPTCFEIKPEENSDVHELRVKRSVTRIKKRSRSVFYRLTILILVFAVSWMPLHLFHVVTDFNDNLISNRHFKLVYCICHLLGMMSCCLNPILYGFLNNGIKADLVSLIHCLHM
Each entry below carries its reported IC50.
Field format: number, assumed nM, no unit text.

Some entries whose results are on file:
Entry CC(C)(C)S(=O)(=O)N[C@H]1CC[C@H](c2nc3nc(-c4ccc(F)cc4)ncc3[nH]2)CC1 [Example 7] ; IC50 = 1.2

Entry CC(C)(C)S(=O)(=O)N[C@H]1CC[C@H](c2nc3ccc(-c4ccccc4)cc3[nH]2)CC1 [Example 3] ; IC50 = 0.67

Entry CC(C)(C)S(=O)(=O)NC1CCN(c2nc3ccc(-c4ccccc4)cc3[nH]2)CC1 [Example 17] ; IC50 = 1.5

Proceeding to the next molecule to report its IC50.
Entry CS(=O)(=O)Nc1ccccc1N1CCN(c2nc3nc(-c4ccccc4)ncc3[nH]2)CC1 [Example 22] ; IC50 = 1.7
